- Test Description: Cell Titer-Glo Cell Viability Assay, genotype 1b cells
- Type: cell-based
- Particulars: human, Huh-Luc-Neo (HCV genotype 1b replicon) cells, HCV genotype 1b assays, read-out: Cytotoxicity* (CC50)
Here, each record is paired with measured CC50 at 72 h data.
Measurement Name: CC50 at 72 h

- Cc1ccc(O)c(-c2nn(C)cc2C#Cc2ccc(NC(=O)[C@@H]3CCCCN3C(=O)[C@H](NC(=O)OC(C)(C)C)c3cccs3)cc2)c1: > 100 µM
- Cc1ccc(O)c(-c2nn(C)cc2C#Cc2ccc(NC(=O)C3CCCCN3C(=O)[C@H](Cc3ccc(Br)cc3)NC(=O)OC(C)(C)C)cc2)c1 (stereo partly drawn): 10 to 100 µM
- Cc1ccc(O)c(-c2nn(C)cc2C#Cc2ccc(NC(=O)C3CCCCN3C(=O)[C@]3(NC(=O)OC(C)(C)C)C[C@@H]3c3ccccc3)cc2)c1 (stereo partly drawn): 10 to 100 µM
